// data source = patent US8883745B2

- Test system: IL-12
- METHOD: IL-12 levels in sera upon i.v. glycolipid administration to BALB/c mice (ELISA)
- Type: in vivo
- Parameters: unit not given here
- CONDITIONS: serum, hour 72
Listed next: entries and their corresponding IL-12 levels, average.

| MOLECULE | IL-12 levels, average |
| --- | --- |
| CCCCCCCCCCCCCC[C@@H](O)[C@@H](O)[C@H](CC[C@H]1O[C@H](CO)[C@H](O)[C@H](O)[C@H]1O)NC(=O)CCCCCCCCCCCCCCCCCCCOCCCCC | 76.5 |
| CCCCCCCCCCCCCCCCCCCCCCCCCCCCC(=O)N[C@@H](/C=C/[C@H]1O[C@H](CO)[C@H](O)[C@H](O)[C@H]1O)[C@H](O)[C@H](O)CCCCCCCCCCCCCC | 222.5 |
| CCCCCCCCCCCCCCCCCCCCCCCCCC(=O)N[C@@H](CC[C@H]1O[C@H](CO)[C@H](O)[C@H](O)[C@H]1O)[C@H](O)[C@H](O)CCCCCCCCCCCCCC [CRONY, reference compound] | 91.5 |
| CCCCCCCCCCCCCCCCCCCCCCCCCC(=O)N[C@@H](CO[C@H]1O[C@H](CO)[C@H](O)[C@H](O)[C@H]1O)[C@H](O)[C@H](O)CCCCCCCCCCCCCC [KRN, reference compound] | 61 |
| CCCCCCCCCCCCCC[C@@H](O)[C@@H](O)[C@H](CC[C@H]1O[C@H](CO)[C@H](O)[C@H](O)[C@H]1O)NC(=O)CCCCCCCCCCCCCCCCCCCOCCCCCC | 64.5 |
| CCCCCCCCCCCCCCCCC/C=C/CCCCCCCCC(=O)N[C@@H](CC[C@H]1O[C@H](CO)[C@H](O)[C@H](O)[C@H]1O)[C@H](O)[C@H](O)CCCCCCCCCCCCCC | 75.5 |
| CCCCCCCCCCCCCCCCCC/C=C/CCCCCCCCC(=O)N[C@@H](/C=C/[C@H]1O[C@H](CO)[C@H](O)[C@H](O)[C@H]1O)[C@H](O)[C@H](O)CCCCCCCCCCCCCC | 48.5 |
